# ASSAY_PROTOCOL: Toxicity liver stage against HepG2, at 10uM
# Assay type: cell-based
# Parameters: test concentration 10 uM, cell line HepG2-A16-CD81EGFP
# RECORDED_CONDITIONS: human, HepG2-A16-CD81EGFP cells; read-out: INHIBITION
Attribute: cytotoxicity at 10 µM
Answer in %, number only, no unit symbol.

Solved cases below.
CC(C)c1ccc(-c2nonc2N)cc1 ... -3.25
CC(C)NS(=O)(=O)c1cc(C(=O)O)cc(-c2ccc3c(c2)OCCO3)c1 ... -2.34
CCn1nc(CC(C)C)cc1C(=O)NCCCOC ... -18.8
CCc1ccccc1NCc1nc2[nH]c(C)c(C)c(=O)n2n1 ... 7.98
CN(C)c1cccc(C(=O)N2CCCc3cc(OC(F)(F)F)ccc32)c1 ... -44.4
CCCN(C(=O)CCS(=O)(=O)Cc1ccccc1)c1cccc(C)c1 ... -2.67
Cc1cccc2nc(CN3CCCC3Cn3cccn3)cn12 (centres undefined) ... 0.893
Cc1cc(C)c2nc(C3CC3)cc(C(=O)N3CCCC3C(N)=O)c2c1 (centres undefined) ... -1.11

Task: Would you kindly share the measured cytotoxicity at 10 µM for `CC(C)OCCC(=O)N(C)CCCc1cc(-c2ccccc2)no1` ?
Result: -15.3

Task: Would you kindly share the measured cytotoxicity at 10 µM for CO[C@H]1CN(C(=O)OC(C)(C)C)CC1NCc1cccn1C (some centres undefined) ?
Result: -44

Task: Would you kindly share the measured cytotoxicity at 10 µM for `CN(C)C(=O)CO[C@H]1CO[C@@]2(CCN(Cc3ccsc3)C2)C1` ?
Result: -111

Task: Would you kindly share the measured cytotoxicity at 10 µM for `CC(C)c1cc2c(O)nc(CSCC(=O)NCc3ccccn3)nc2s1` ?
Result: -5.29

Task: Would you kindly share the measured cytotoxicity at 10 µM for Cc1ccc(NC2CCCN(Cc3ccc(Cl)cc3)C2)nn1 (centres undefined) ?
Result: -5.98

Task: Would you kindly share the measured cytotoxicity at 10 µM for C1CC(CN2CCc3c(nnn3CC3CC3)C2COCC2CC2)C1 (centres undefined) ?
Result: 7.61

Task: Would you kindly share the measured cytotoxicity at 10 µM for `CC(C)=CCN1CCN(C(=O)C2CC2)CC1` ?
Result: 6.64

Task: Would you kindly share the measured cytotoxicity at 10 µM for `CCc1csc(CNc2nc3c(s2)c(C)nn3C)n1` ?
Result: -35.5

Task: Would you kindly share the measured cytotoxicity at 10 µM for `COCCN1CC[C@H]2OCC[C@@H](C(=O)Nc3cccnc3)[C@@H]2C1` ?
Result: 4.81

Task: Would you kindly share the measured cytotoxicity at 10 µM for `COC(=O)c1cccn1C1CCN(C(=O)c2ccc(C)cc2O)CC1` ?
Result: -6.97

Task: Would you kindly share the measured cytotoxicity at 10 µM for `Cc1ccc(CCC(=O)N(C)CCN2CCOCC2)c(C)c1` ?
Result: -4.51

Task: Would you kindly share the measured cytotoxicity at 10 µM for `N#Cc1ccnc(N2CCN(Cc3cccc(F)c3)CC2)c1` ?
Result: 0.795
